target: mouse heart mitochondrial membranes (complex I) (Mus musculus, UniProt P03888+P03899+Q91WD5+Q9DC70); assay: NADH:O2 oxidoreduction by mouse heart mitochondrial membranes; type: biochemical; settings: Prism variable slope fit, Bottom 0, Top 100, read-out: IC50 (best fit value)
Sequence (P03899 whole entry): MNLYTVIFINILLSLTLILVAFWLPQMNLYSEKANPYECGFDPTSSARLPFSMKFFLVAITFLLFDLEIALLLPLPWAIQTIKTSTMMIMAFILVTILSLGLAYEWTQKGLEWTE
Sequence (P03888 whole entry): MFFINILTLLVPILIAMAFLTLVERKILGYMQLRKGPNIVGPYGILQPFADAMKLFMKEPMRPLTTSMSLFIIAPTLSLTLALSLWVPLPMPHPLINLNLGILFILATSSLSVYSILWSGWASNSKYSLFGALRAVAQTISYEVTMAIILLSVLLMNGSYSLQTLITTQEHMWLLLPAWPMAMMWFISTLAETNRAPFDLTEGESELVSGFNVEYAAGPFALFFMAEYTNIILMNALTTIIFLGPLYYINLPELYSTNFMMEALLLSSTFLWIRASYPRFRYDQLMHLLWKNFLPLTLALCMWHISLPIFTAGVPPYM
Sequence (Q9DC70 36-224): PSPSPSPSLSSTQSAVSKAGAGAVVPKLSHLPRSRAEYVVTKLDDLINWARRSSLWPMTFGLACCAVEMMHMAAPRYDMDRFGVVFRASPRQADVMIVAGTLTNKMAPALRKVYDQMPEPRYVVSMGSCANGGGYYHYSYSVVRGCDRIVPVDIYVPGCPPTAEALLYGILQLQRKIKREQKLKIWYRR
Sequence (Q91WD5 34-463): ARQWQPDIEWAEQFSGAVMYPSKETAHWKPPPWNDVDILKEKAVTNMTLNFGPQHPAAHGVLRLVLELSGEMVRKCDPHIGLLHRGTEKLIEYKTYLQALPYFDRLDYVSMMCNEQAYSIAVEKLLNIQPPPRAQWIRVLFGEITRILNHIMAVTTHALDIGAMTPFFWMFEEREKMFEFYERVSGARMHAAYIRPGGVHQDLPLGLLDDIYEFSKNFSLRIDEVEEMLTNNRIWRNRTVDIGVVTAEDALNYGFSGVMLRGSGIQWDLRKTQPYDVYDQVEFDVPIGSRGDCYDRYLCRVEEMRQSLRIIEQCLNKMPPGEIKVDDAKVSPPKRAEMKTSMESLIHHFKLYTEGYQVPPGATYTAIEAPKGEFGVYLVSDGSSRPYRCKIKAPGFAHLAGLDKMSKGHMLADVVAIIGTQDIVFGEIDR
pIC50: −log10 of the molar value.
In this section we review reported pIC50 values for a set of compounds.
endpoint: pIC50

INSERT INTO measurements (line_notation, result_number) VALUES
  ('NC(N)=NC(N)=NCCc1ccc(Cl)cc1', 3.33),
  ('NC(N)=NC(N)=NCc1ccccc1', 2.50),
  ('CC(C)N=C(N)N=C(N)NC(C)C', 3.54),
  ('CC(C)N=C(N)N=C(N)N', 1.52);

----------
molecular target: mouse heart mitochondrial membranes (complex I) (Mus musculus, UniProt P03888+P03899+Q91WD5+Q9DC70); assay: NADH:O2 oxidoreduction by mouse heart mitochondrial membranes; assay type: biochemical; settings: inhibitor 0.50 mM, read-out: average % (rate, % of no-inhibitor control)
endpoint: remaining activity at 500 µM (%)

INSERT INTO assay_data (molecule, unit_name, result_number) VALUES
  ('[H]/N=C(/N)N/C(=N/[H])NCCc1ccccc1 [phenformin, reference compound]', '%', 59.3),
  ('NC(N)=NC(N)=NCCc1ccc(Cl)cc1', '%', 47.6),
  ('NC(N)=NC(N)=NCc1ccccc1', '%', 86.3),
  ('N=C(N)N=C(N)Nc1ccccc1', '%', 59.6);

----------
In this section we review reported p-ACC / AMPK beta normalised to control values for a set of molecules.
test system: acetyl-coA carboxylase (phospho-Ser79); experiment: AMPK activation, western blot of phospho-acetyl-coA carboxylase in MDBK cells; type: cell-based, Bos taurus; conditions: Experiment 1, 18 hours
endpoint: p-ACC / AMPK beta normalised to control

INSERT INTO assay_data (molecule, result_number) VALUES
  ('[H]/N=C(/N)N/C(=N/[H])NCCc1ccccc1 [phenformin, reference compound]', 6.56),
  ('[H]/N=C(\N/C(=N/[H])Nc1ccc(Cl)cc1)NC(C)C [proguanil, reference compound]', 1.73),
  ('CC(C)N=C(N)N=C(N)N', 13.60),
  ('N=C(N)NC(N)=Nc1ccccc1 [compound 2, phenyl biguanide]', 1.30),
  ('CC(C)N=C(N)N=C(N)NC(C)C', 1.41),
  ('NC(N)=NC(N)=NCCc1ccc(Cl)cc1', 9.53),
  ('NC(N)=NC(N)=NCc1ccccc1', 12.63);

----------
In this section we review reported remaining activity at 250 µM values for a set of compounds.
molecular target: bovine heart mitochondrial membranes (complex I) (Bos taurus, UniProt P03887+P03898+P17694+P42026); assay: NADH:O2 oxidoreduction by bovine heart mitochondrial membranes (complexes I-III-IV); format: biochemical; conditions: bovine heart mitochondrial membranes; inhibitor 0.25 mM; read-out: average % (rate, % of no-inhibitor control)
Sequence (P42026 38-216): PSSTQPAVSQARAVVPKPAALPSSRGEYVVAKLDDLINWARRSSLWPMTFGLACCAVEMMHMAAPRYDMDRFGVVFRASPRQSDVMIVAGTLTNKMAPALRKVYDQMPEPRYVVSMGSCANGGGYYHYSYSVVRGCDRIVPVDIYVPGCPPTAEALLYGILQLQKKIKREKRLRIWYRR
Sequence (P17694 34-463): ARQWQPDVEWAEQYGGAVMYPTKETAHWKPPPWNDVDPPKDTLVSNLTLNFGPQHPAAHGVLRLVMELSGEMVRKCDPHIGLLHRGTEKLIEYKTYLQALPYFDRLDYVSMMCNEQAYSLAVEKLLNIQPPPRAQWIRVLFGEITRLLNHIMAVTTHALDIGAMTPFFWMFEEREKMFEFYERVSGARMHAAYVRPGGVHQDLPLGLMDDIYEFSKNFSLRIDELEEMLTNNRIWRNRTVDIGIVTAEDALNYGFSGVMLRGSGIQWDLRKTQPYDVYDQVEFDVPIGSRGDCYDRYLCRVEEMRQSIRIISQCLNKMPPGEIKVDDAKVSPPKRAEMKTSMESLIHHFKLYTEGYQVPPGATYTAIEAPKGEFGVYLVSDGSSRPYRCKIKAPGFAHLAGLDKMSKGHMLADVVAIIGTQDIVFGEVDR
Sequence (P03887 whole entry): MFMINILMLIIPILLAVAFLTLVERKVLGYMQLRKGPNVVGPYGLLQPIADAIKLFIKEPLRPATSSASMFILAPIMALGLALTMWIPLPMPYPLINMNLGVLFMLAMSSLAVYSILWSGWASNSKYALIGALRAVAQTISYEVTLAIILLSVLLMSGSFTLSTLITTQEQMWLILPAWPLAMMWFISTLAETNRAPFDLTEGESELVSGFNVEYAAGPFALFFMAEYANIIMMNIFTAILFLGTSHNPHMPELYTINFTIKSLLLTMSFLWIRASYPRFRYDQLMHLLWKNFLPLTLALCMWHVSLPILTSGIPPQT
Sequence (P03898 whole entry): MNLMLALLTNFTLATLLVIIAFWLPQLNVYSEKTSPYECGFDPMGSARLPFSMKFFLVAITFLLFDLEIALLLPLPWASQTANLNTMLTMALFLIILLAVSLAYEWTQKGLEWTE
endpoint: remaining activity at 250 µM (%)

INSERT INTO measurements (compound, result_number) VALUES
  ('NC(N)=NC(N)=NCCc1ccc(Cl)cc1', 57.4),
  ('CC(C)N=C(N)N=C(N)NC(C)C', 53.5),
  ('[H]/N=C(\N/C(=N/[H])Nc1ccc(Cl)cc1)NC(C)C [proguanil, reference compound]', 6.98),
  ('NC(N)=NC(N)=NCc1ccccc1', 69.2),
  ('N=C(N)N=C(N)Nc1ccccc1', 59.3);

----------
target: mouse heart mitochondrial membranes (complex I) (Mus musculus, UniProt P03888+P03899+Q91WD5+Q9DC70); experiment: NADH:O2 oxidoreduction by mouse heart mitochondrial membranes; format: biochemical; settings: log of IC50 in mM, Prism variable slope fit
Respond with class 1 for LogIC50 (best fit value) values of -0.3 and above, class 0 for values below.

INSERT INTO results (molecule, cat) VALUES
  ('[H]/N=C(\N/C(=N/[H])Nc1ccc(Cl)cc1)NC(C)C [proguanil, reference compound]', 'class 0'),
  ('N=C(N)NC(N)=Nc1ccccc1 [compound 2, phenyl biguanide]', 'class 1'),
  ('CC(C)N=C(N)N=C(N)NC(C)C', 'class 0'),
  ('NC(N)=NC(N)=NCCc1ccc(Cl)cc1', 'class 0'),
  ('NC(N)=NC(N)=NCc1ccccc1', 'class 1'),
  ('[H]/N=C(/N)N/C(=N/[H])NCCc1ccccc1 [phenformin, reference compound]', 'class 1'),
  ('CC(C)N=C(N)N=C(N)N', 'class 1');

----------
system: acetyl-coA carboxylase (phospho-Ser79); assay: AMPK activation, western blot of phospho-acetyl-coA carboxylase in MDBK cells; format: cell-based, Bos taurus; conditions: Experiment 3, 18 hours
endpoint: p-ACC / AMPK beta

INSERT INTO results (molecule, endpoint, result) VALUES
  ('[H]/N=C(/N)N/C(=N/[H])NCCc1ccccc1 [phenformin, reference compound]', 'p-ACC / AMPK beta', 1.68),
  ('CC(C)N=C(N)N=C(N)NC(C)C [compound 5]', 'p-ACC / AMPK beta', 0.36),
  ('N=C(N)NC(N)=Nc1ccccc1 [compound 2, phenyl biguanide]', 'p-ACC / AMPK beta', 0.28),
  ('CC(C)N=C(N)N=C(N)N [compound 4]', 'p-ACC / AMPK beta', 3.25),
  ('[H]/N=C(\N/C(=N/[H])Nc1ccc(Cl)cc1)NC(C)C [proguanil, reference compound]', 'p-ACC / AMPK beta', 0.47),
  ('NC(N)=NC(N)=NCc1ccccc1 [compound 3, 2-benzyl-1-(diaminomethylidene)guanidine]', 'p-ACC / AMPK beta', 3.41),
  ('NC(N)=NC(N)=NCCc1ccc(Cl)cc1 [compound 1]', 'p-ACC / AMPK beta', 1.89);

----------
tested on: AMPK-α (phospho-Thr172); assay: AMPK activation, western blot of phospho-AMPK-α in MDBK cells; type: cell-based, Bos taurus; details: Experiment 3, 18 hours
In this section we review reported p-alpha / AMPK beta values for a set of compounds.
endpoint: p-alpha / AMPK beta

INSERT INTO measurements (compound, result_number) VALUES
  ('NC(N)=NC(N)=NCCc1ccc(Cl)cc1 [compound 1]', 0.86),
  ('[H]/N=C(/N)N/C(=N/[H])NCCc1ccccc1 [phenformin, reference compound]', 0.64),
  ('CC(C)N=C(N)N=C(N)NC(C)C [compound 5]', 0.29),
  ('[H]/N=C(\N/C(=N/[H])Nc1ccc(Cl)cc1)NC(C)C [proguanil, reference compound]', 0.30),
  ('N=C(N)NC(N)=Nc1ccccc1 [compound 2, phenyl biguanide]', 0.27),
  ('CC(C)N=C(N)N=C(N)N [compound 4]', 2.53),
  ('NC(N)=NC(N)=NCc1ccccc1 [compound 3, 2-benzyl-1-(diaminomethylidene)guanidine]', 2.78);

----------
Biological target: bovine heart mitochondrial membranes (complex I) (Bos taurus, UniProt P03887+P03898+P17694+P42026)
Experiment: NADH:O2 oxidoreduction by bovine heart mitochondrial membranes (complexes I-III-IV)
Type: biochemical
Settings: log of concentration in mM; sample given as Bovine heart mitochondrial membranes; Prism variable slope fit, Bottom 0, Top 100
Experimental: Complex I and mitochondrial membranes were prepared from Bos taurus (bovine) heart. Intact mitochondria were isolated from rat liver and mouse heart and liver. […] Assays were performed at 32 °C in a SpectraMax 96-well plate reader. […] Catalysis was initiated by addition of NADH and maximal rates determined by linear regression. […] Succinate:O2 oxidoreduction was measured using 40 μg mL^−1 membranes in 5 mM succinate in 10 mM Tris-HCl (pH 7.4) as described previously. […]
In this section we review reported LogIC50 (best fit value) values for a set of compounds.
endpoint: LogIC50 (best fit value)

INSERT INTO assay_data (compound, result_number) VALUES
  ('NC(N)=NC(N)=NCCc1ccc(Cl)cc1', -0.4001),
  ('N=C(N)NC(N)=Nc1ccccc1 [compound 2, phenyl biguanide]', -0.3757),
  ('CC(C)N=C(N)N=C(N)NC(C)C', -0.4916),
  ('[H]/N=C(\N/C(=N/[H])Nc1ccc(Cl)cc1)NC(C)C [proguanil, reference compound]', -1.788),
  ('CC(C)N=C(N)N=C(N)N', 1.46),
  ('NC(N)=NC(N)=NCc1ccccc1', -0.01339);

----------
In this section we review reported rotenone sensitive OCR after ADP stimulation, average values for a set of compounds.
test system: permeabilized 143B cells; test: ADP-stimulated rotenone-sensitive OCR in permeabilized 143B cells; type: cell-based, human; set-up: unit not given here; conditions: 143B permeabilised cells; average of replicates
endpoint: rotenone sensitive OCR after ADP stimulation, average

INSERT INTO assay_data (compound, result_number) VALUES
  ('N=C(N)NC(N)=Nc1ccccc1 [compound 2, phenyl biguanide]', 181.66),
  ('NC(N)=NC(N)=NCCc1ccc(Cl)cc1', 25.27),
  ('CC(C)N=C(N)N=C(N)N', 11.79),
  ('[H]/N=C(\N/C(=N/[H])Nc1ccc(Cl)cc1)NC(C)C [proguanil, reference compound]', 253.55),
  ('CC(C)N=C(N)N=C(N)NC(C)C', 108.98);
